# TESTED TARGET: TBK1 (Homo sapiens, UniProt Q9UHD2)
# Construct: His-tag; made in house; host or cells: Sf9 insect cells
# Sequence (Q9UHD2 1-729): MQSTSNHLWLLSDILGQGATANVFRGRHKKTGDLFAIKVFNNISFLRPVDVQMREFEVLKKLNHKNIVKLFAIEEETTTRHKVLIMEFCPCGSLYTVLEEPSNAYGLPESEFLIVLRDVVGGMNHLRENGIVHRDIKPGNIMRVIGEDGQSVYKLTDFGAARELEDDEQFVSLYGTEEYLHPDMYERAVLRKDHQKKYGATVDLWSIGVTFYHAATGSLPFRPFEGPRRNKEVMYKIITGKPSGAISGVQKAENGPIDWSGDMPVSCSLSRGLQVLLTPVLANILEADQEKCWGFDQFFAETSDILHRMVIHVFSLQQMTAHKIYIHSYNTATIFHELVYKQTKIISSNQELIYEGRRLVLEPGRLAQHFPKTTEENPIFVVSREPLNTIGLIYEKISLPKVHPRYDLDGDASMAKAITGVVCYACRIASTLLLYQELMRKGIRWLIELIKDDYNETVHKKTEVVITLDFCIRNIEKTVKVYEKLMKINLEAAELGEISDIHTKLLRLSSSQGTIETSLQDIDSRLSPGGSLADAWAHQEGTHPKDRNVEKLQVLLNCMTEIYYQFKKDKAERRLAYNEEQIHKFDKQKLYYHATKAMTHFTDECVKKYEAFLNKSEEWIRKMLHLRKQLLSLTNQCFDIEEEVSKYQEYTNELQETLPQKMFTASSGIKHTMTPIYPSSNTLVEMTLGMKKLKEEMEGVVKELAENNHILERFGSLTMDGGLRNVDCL
# ASSAY REMARKS: In-vitro TBK1 kinase assay ([γ33]ATP filter-plate)
# Format: biochemical
# PROTOCOL CONDITIONS: text bins; read-out: IC50 for inhibition of the kinase activity of TBK1
pIC50: −log10 of the molar value.
Documented pIC50 across a set of compounds

1. COc1cc(NC(=O)N2CCCC(O)C2)cc(Nc2nccc(-c3ccc(OC)c(C#N)c3)n2)c1 (stereo not drawn) [compound 353]: 7.00 to 8.00
2. COc1cc(Nc2nccc(-c3ccc(OC4CCOCC4)c(C#N)c3)n2)ccc1CN1CC(N2CCOCC2)C1 [compound 481]: > 8.00
3. CCC(C)C(=O)Nc1ccc(-c2ccnc(Nc3ccc(N4CCOCC4)cc3)n2)cc1C#N (stereo not drawn) [compound 417]: > 8.00

Now let's try a different one.
Qu. Look at this compound and give its reported pIC50. COc1ccc(-c2ccnc(Nc3ccc(CN4CCOCC4)cc3)n2)cc1C#N [Example 251]
Ans. 7.00 to 8.00

====

# TESTED TARGET: IKKε (Homo sapiens, UniProt Q14164)
# Construct: His-tag; made in house; host or cells: Sf9 insect cells
# Sequence (Q14164 1-716): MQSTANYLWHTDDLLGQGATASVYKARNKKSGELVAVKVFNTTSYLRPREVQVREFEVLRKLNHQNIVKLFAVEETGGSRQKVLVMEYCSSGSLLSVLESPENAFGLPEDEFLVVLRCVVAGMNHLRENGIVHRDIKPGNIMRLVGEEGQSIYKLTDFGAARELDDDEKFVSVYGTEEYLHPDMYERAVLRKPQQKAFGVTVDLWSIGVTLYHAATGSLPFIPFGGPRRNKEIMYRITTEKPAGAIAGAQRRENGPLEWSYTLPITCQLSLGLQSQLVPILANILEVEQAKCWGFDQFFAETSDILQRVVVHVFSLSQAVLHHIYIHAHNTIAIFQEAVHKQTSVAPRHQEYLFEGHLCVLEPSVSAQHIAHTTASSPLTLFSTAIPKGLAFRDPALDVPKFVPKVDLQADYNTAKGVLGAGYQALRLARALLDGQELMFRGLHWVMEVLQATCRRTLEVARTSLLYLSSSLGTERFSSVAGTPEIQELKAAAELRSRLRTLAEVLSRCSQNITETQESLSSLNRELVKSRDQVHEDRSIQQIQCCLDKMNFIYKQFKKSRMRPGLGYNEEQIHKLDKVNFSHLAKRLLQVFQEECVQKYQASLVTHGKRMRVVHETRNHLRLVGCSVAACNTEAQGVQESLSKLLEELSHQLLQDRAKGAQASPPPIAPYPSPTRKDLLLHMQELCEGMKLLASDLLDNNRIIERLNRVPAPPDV
# ASSAY REMARKS: In-vitro IKKε kinase assay ([γ33]ATP filter-plate)
# Format: biochemical
# PROTOCOL CONDITIONS: text bins; read-out: IC50 for inhibition of the kinase activity of IKKε
pIC50: −log10 of the molar value.
In this section, each of the compounds is paired with its reported pIC50.

Qu. Record COc1cc(Nc2nccc(-c3ccc(OC4CCOCC4)c(C#N)c3)n2)ccc1C(=O)N1CC(N2CCOCC2)C1 : what is its pIC50 with IKKε (Homo sapiens, UniProt Q14164)?
Ans. > 8.30

Qu. Here is the next compound: N#Cc1cc(-c2ccnc(Nc3ccc(N4CCOCC4)cc3)n2)ccc1OCC1CCCCO1 (stereo not shown)
Ans. 7.30 to 8.30

Qu. CN1CCN(CC(=O)N2CCC(Oc3ccc(-c4ccnc(Nc5ccc(N6CCOCC6)cc5)n4)cc3C#N)CC2)CC1 , same question.
Ans. 6.30 to 7.30

Qu. Now try N#Cc1cc(-c2ccnc(Nc3ccc(N4CCOCC4)cc3)n2)ccc1OCc1ccccc1 .
Ans. 7.30 to 8.30

====

IC50: recorded values
# TESTED TARGET: TBK1 (Homo sapiens, UniProt Q9UHD2)
# Construct: His-tag; made in house; host or cells: Sf9 insect cells
# Sequence (Q9UHD2 1-729): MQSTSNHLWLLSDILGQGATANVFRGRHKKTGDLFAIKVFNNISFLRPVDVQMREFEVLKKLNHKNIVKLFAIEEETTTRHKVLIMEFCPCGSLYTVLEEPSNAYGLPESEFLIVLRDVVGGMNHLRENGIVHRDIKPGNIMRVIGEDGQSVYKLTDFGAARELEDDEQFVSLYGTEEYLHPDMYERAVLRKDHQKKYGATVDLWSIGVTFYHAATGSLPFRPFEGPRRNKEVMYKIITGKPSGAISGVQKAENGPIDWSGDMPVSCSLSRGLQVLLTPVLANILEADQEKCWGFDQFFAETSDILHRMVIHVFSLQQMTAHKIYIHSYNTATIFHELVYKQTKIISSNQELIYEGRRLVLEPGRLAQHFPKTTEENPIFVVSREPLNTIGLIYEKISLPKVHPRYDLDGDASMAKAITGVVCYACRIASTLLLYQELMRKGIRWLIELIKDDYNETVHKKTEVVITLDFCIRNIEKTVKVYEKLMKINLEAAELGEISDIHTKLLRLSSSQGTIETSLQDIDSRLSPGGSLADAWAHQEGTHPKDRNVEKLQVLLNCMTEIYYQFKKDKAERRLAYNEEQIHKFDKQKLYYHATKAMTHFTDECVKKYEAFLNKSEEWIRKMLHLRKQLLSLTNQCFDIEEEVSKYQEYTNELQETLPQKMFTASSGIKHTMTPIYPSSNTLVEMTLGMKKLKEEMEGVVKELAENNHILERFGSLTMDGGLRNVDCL
# ASSAY REMARKS: In-vitro TBK1 kinase assay ([γ33]ATP filter-plate)
# Assay type: biochemical
# PROTOCOL CONDITIONS: text bins; read-out: IC50 for inhibition of the kinase activity of TBK1

1. N#Cc1cc(-c2ccnc(Nc3ccc(N4CCOCC4)cc3)n2)ccc1OCC1CCNC1 (stereo not shown): < 10 nM

Qu. What IC50 value was documented for this compound, N#Cc1cccc(-c2ccnc(Nc3ccc(OCCN4CCOCC4)cc3)n2)c1 ?
Ans. 10 to 100 nM

Qu. What would you report for N#Cc1cc(-c2ccnc(Nc3cccc(N4CCN(CCO)CC4)c3)n2)ccc1OC1CCOCC1 ?
Ans. < 10 nM

Qu. # iterate: N#Cc1cc(-c2ccnc(Nc3ccc(N4CCOCC4)cc3)n2)ccc1OCCC1CCN(C(=O)CO)CC1
Ans. 10 to 100 nM

Qu. What do we get for COc1cc(Nc2nccc(-c3ccc(OC4CCOCC4)c(C#N)c3)n2)ccc1OCCOCCNS(=O)(=O)N(C)C ?
Ans. < 10 nM

Qu. // repeat for COc1ccc(-c2ccnc(Nc3ccc(N4CCOCC4)c(Cl)c3)n2)cc1C#N and report
Ans. < 10 nM

Qu. Okay, and COc1ccc(-c2ccnc(Nc3ccc(N4CCOCC4)cc3)n2)cc1C#N ?
Ans. < 10 nM

====

# TESTED TARGET: IKKε (Homo sapiens, UniProt Q14164)
# Construct: His-tag; made in house; host or cells: Sf9 insect cells
# ASSAY REMARKS: In-vitro IKKε kinase assay ([γ33]ATP filter-plate)
# Format: biochemical
# PROTOCOL CONDITIONS: text bins; read-out: IC50 for inhibition of the kinase activity of IKKε
pIC50: −log10 of the molar value.
Collected pIC50 values appear next to each entry.

1) CC(=O)Nc1cccc(Nc2nccc(-c3ccc(OCc4ccccc4)c(C#N)c3)n2)c1: 7.30 to 8.30
2) COc1ccc(Nc2nccc(-c3ccc(OC4CCOCC4)c(C#N)c3)n2)cc1OCCCN1CCNCC1: > 8.30
3) CN(C)Cc1cccc(Nc2nccc(-c3ccc(O[C@@H]4CCN(C(=O)CO)C4)c(C#N)c3)n2)c1: > 8.30
4) CC1(COc2ccc(-c3ccnc(Nc4ccc(N5CCN(CCO)CC5)cc4)n3)cc2C#N)COC1: > 8.30
5) C[C@H](O)C(=O)N1CCC(Oc2ccc(-c3ccnc(Nc4ccc(N5CCOCC5)cc4)n3)cc2C#N)CC1: > 8.30

Qu. If you can, please state the reported pIC50 value of COc1ccc(-c2ccnc(Nc3ccc(N4CCCNC(=O)C4)c(OC)c3)n2)cc1C#N .
Ans. > 8.30

Qu. Request: N#Cc1cc(-c2ccnc(Nc3ccc4ncsc4c3)n2)ccc1OC1CCOCC1
Ans. > 8.30

Qu. // repeat for COc1ccc(-c2ccnc(Nc3ccc(N4CCNC(=O)C4)c(OC)c3)n2)cc1C#N and report
Ans. > 8.30

Qu. Field entry: COc1cc(Nc2nccc(-c3ccc(OC)c(C#N)c3)n2)cc(OC2CCN(C)CC2)c1
Ans. 7.30 to 8.30

Qu. And what about the compound Cc1ccc(Nc2nccc(-c3ccc(NC(=O)C(C)C)c(C#N)c3)n2)cc1OCCCN1CCOCC1 ?
Ans. 7.30 to 8.30

Qu. Subsequent entry: N#Cc1cc(-c2ccnc(Nc3ccc(N4CCOCC4)cc3)n2)ccc1NC(=O)NC1CCC(O)CC1 (stereo not drawn)
Ans. 6.30 to 7.30
